Tested on: HepG2
run description: Cytotoxicity against human HepG2 cells assessed as reduction in cell viability incubated for 24 hrs by cell-titer 96 aqueous one solution cell proliferation assay
Type: functional, cell-based
setup conditions: HepG2, 24 h
Recorded IC50 values for a group of compounds are listed next.
// note: answer is a bare numeric in µM

A selection of reference data follows.
O=C(N/N=C/c1cc(I)cc(I)c1O)c1ccc(C(F)(F)F)cc1: 11.7
O=C(N/N=C/c1cc(I)cc(I)c1O)c1ccc([N+](=O)[O-])cc1: 24.7
O=C(N/N=C/c1cc(I)c(O)c(I)c1)c1ccccc1: 191
O=C(NNC(=O)c1cc(I)cc(I)c1O)c1ccc(C(F)(F)F)cc1: 167
O=C(N/N=C/c1cc(I)cc(I)c1O)c1ccc(Br)cc1: 22.3

Fill blank: measured IC50 of the compound "O=C(NNC(=O)c1cc(I)cc(I)c1O)c1ccc(Cl)cc1" is ____.
48.6

Fill blank: measured IC50 of the compound "COc1ccc(C(=O)N/N=C/c2cc(I)cc(I)c2O)cc1" is ____.
45.1

Fill blank: measured IC50 of the compound "O=C(N/N=C/c1cc(I)cc(I)c1O)c1ccc(I)cc1" is ____.
31.8

Fill blank: measured IC50 of the compound "O=C(N/N=C/c1cc(I)c(O)c(I)c1)c1ccc(C(F)(F)F)cc1" is ____.
57.4

Fill blank: measured IC50 of the compound "O=C(N/N=C/c1cc(I)cc(I)c1O)c1ccc(Cl)cc1" is ____.
14.8

---

System: Staphylococcus aureus
run description: Antibacterial activity against methicillin-resistant Staphylococcus aureus ATCC 43300 assessed as reduction in bacterial growth incubated for 48 hrs by broth microdilution method
Assay type: functional
Recorded MIC values for a group of compounds are listed next.
// note: answer is a bare numeric in µM

A selection of reference data follows.
O=C(N/N=C/c1cc(I)cc(I)c1O)c1ccc([N+](=O)[O-])cc1: 62.5
O=C(N/N=C/c1cc(I)cc(I)c1O)c1ccc(C(F)(F)F)cc1: 31.2
O=C(NNCc1cc(I)cc(I)c1O)c1ccc(Cl)cc1: 62.5
Oc1c(I)cc(I)cc1CNNC(O)c1ccc(F)cc1 (stereo unspecified): 62.5

From here, focus on the item given below.
Fill blank: measured MIC of the compound "O=C(N/N=C/c1cc(I)c(O)c(I)c1)c1ccc(C(F)(F)F)cc1" is ____.
500

---

System: Candida parapsilosis
run description: Antifungal activity against Candida parapsilosis ATCC 22019 assessed as reduction in fungal growth incubated for 24 hrs by broth microdilution method
Assay type: functional
setup conditions: Lodderomyces parapsilosis
Recorded MIC values for a group of molecules are listed next.

Oc1c(I)cc(I)cc1CNNC(O)c1ccc(F)cc1 (centres undefined): > 500 µM
O=C(N/N=C/c1cc(I)cc(I)c1O)c1ccc(F)cc1: 62.5 µM
O=C(NNCc1cc(I)cc(I)c1O)c1ccc(F)cc1: > 125 µM

From here, focus on the item given below.
Fill blank: measured MIC of the molecule "O=C(N/N=C/c1cc(I)cc(I)c1O)c1ccc([N+](=O)[O-])cc1" is ____.
> 125 µM

---

Recorded IC50 values for a group of compounds are listed next.
System: HepG2
run description: Cytotoxicity against human HepG2 cells assessed as reduction in cell viability incubated for 24 hrs by cell-titer 96 aqueous one solution cell proliferation assay
Format: functional, cell-based
setup conditions: HepG2, 24 h
// note: answer is a bare numeric in µM

CC(C)(C)c1ccc(C(=O)N/N=C/c2cc(I)c(O)c(I)c2)cc1: 45.9
O=C(N/N=C/c1cc(I)c(O)c(I)c1)c1ccc(O)cc1: 110
CC(C)(C)c1ccc(C(=O)N/N=C/c2cc(I)cc(I)c2O)cc1: 41.6
O=C(N/N=C/c1cc(I)c(O)c(I)c1)c1ccc([N+](=O)[O-])cc1: 92.1
COc1ccc(C(=O)NNC(=O)c2cc(I)cc(I)c2O)cc1: 132

What reported IC50 corresponds to "O=C(NNC(=O)c1cc(I)cc(I)c1O)c1ccc(F)cc1" on HepG2?
87

What reported IC50 corresponds to "O=C(N/N=C/c1cc(I)cc(I)c1O)c1ccc(F)cc1" on HepG2?
12.1

What reported IC50 corresponds to "O=C(N/N=C/c1cc(I)c(O)c(I)c1)c1ccc(F)cc1" on HepG2?
117

---

Test system: Pichia kudriavzevii
run description: Antifungal activity against Candida krusei ATCC 6258 assessed as reduction in fungal growth incubated for 48 hrs by broth microdilution method
Type: functional
readout name: MIC

A selection of reference data follows.
Oc1c(I)cc(I)cc1CNNC(O)c1ccc(F)cc1 (centres undefined): > 500 µM
O=C(N/N=C/c1cc(I)cc(I)c1O)c1ccc(F)cc1: 125 µM
O=C(NNCc1cc(I)cc(I)c1O)c1ccc(F)cc1: > 125 µM

From here, focus on the item given below.
Fill blank: measured MIC of the molecule "O=C(N/N=C/c1cc(I)cc(I)c1O)c1ccc([N+](=O)[O-])cc1" is ____.
> 125 µM

---

Recorded MIC values for a group of compounds are listed next.
System: Staphylococcus aureus
run description: Antibacterial activity against methicillin-resistant Staphylococcus aureus ATCC 43300 assessed as reduction in bacterial growth incubated for 48 hrs by broth microdilution method
Format: functional
// note: answer is a bare numeric in µM

O=C(NNCc1cc(I)cc(I)c1O)c1ccc(F)cc1: 125
O=C(N/N=C/c1cc(I)cc(I)c1O)c1ccccc1: 125

Fill blank: measured MIC of the compound "CC(C)(C)c1ccc(C(=O)N/N=C/c2cc(I)c(O)c(I)c2)cc1" is ____.
250

---

System: HepG2
run description: Cytotoxicity against human HepG2 cells assessed as reduction in cell viability incubated for 24 hrs by cell-titer 96 aqueous one solution cell proliferation assay
Type: functional, cell-based
setup conditions: HepG2, 24 h
readout name: IC50 (µM)
// note: answer is a bare numeric in µM

What reported IC50 corresponds to "O=C(N/N=C/c1cc(I)cc(I)c1O)c1ccc(O)cc1" on HepG2?
19.2

What reported IC50 corresponds to Oc1c(I)cc(I)cc1CNNC(O)c1ccc(F)cc1 (configuration not stated) on HepG2?
41.9

What reported IC50 corresponds to "O=C(NNC(=O)c1cc(I)cc(I)c1O)c1ccccc1" on HepG2?
98

What reported IC50 corresponds to "O=C(NNCc1cc(I)cc(I)c1O)c1ccc(Cl)cc1" on HepG2?
52.2

What reported IC50 corresponds to "O=C(NNC(=O)c1cc(I)cc(I)c1O)c1ccc([N+](=O)[O-])cc1" on HepG2?
159

What reported IC50 corresponds to "O=C(NNC(=O)c1cc(I)cc(I)c1O)c1ccc(I)cc1" on HepG2?
25.1

What reported IC50 corresponds to "O=C(NNCc1cc(I)cc(I)c1O)c1ccc(F)cc1" on HepG2?
52.2

What reported IC50 corresponds to "Cc1ccc(C(=O)NNC(=O)c2cc(I)cc(I)c2O)cc1" on HepG2?
86.4

What reported IC50 corresponds to "CC(C)(C)c1ccc(C(=O)NNC(=O)c2cc(I)cc(I)c2O)cc1" on HepG2?
87.3

What reported IC50 corresponds to "O=C(NNC(=O)c1cc(I)cc(I)c1O)c1ccc(Br)cc1" on HepG2?
62.8

---

Test system: Staphylococcus aureus
run description: Antibacterial activity against methicillin-resistant Staphylococcus aureus ATCC 43300 assessed as reduction in bacterial growth incubated for 48 hrs by broth microdilution method
Type: functional
readout name: MIC

A selection of reference data follows.
O=C(NNC(=O)c1cc(I)cc(I)c1O)c1ccc(I)cc1: 250 µM
O=C(N/N=C/c1cc(I)cc(I)c1O)c1ccc(F)cc1: 31.2 µM
O=C(N/N=C/c1cc(I)c(O)c(I)c1)c1ccc(F)cc1: > 500 µM
O=C(NNC(=O)c1cc(I)cc(I)c1O)c1ccc(F)cc1: 500 µM
O=C(N/N=C/c1cc(I)c(O)c(I)c1)c1ccccc1: > 500 µM

Fill blank: measured MIC of the compound "COc1ccc(C(=O)NNC(=O)c2cc(I)cc(I)c2O)cc1" is ____.
> 500 µM

Fill blank: measured MIC of the compound "Cc1ccc(C(=O)N/N=C/c2cc(I)c(O)c(I)c2)cc1" is ____.
> 500 µM

Fill blank: measured MIC of the compound "O=C(N/N=C/c1cc(I)c(O)c(I)c1)c1ccc(Cl)cc1" is ____.
> 500 µM

Fill blank: measured MIC of the compound "O=C(NNC(=O)c1cc(I)cc(I)c1O)c1ccc(Cl)cc1" is ____.
62.5 µM

Fill blank: measured MIC of the compound "O=C(N/N=C/c1cc(I)cc(I)c1O)c1ccc(O)cc1" is ____.
62.5 µM

Fill blank: measured MIC of the compound "O=C(N/N=C/c1cc(I)cc(I)c1O)c1ccc(Cl)cc1" is ____.
62.5 µM

Fill blank: measured MIC of the compound "O=C(N/N=C/c1cc(I)c(O)c(I)c1)c1ccc([N+](=O)[O-])cc1" is ____.
> 500 µM

Fill blank: measured MIC of the compound "COc1ccc(C(=O)N/N=C/c2cc(I)c(O)c(I)c2)cc1" is ____.
> 500 µM

Fill blank: measured MIC of the compound "O=C(N/N=C/c1cc(I)cc(I)c1O)c1ccc(Br)cc1" is ____.
125 µM

meta.source: ChEMBL document CHEMBL4811275
